// provenance: patent US20180355043A1

- subjectOfTest: T1, DR4G143: Human HLA-DRA1*01:02/DRB1*04:01 ECD_VimentineL70A (human)
- T1 construct: also called DRB1*04:01 VitL70A
- assayText: MSD ECL; antigen coated; protocol of Example 3
This listing pairs binders with measured ECL signal.
// note: answer is a bare numeric in ECL

DR4B127 (antibody, human IgG2, kappa, V domains shown, also called VH DR4H7 / VL PH9L3) VH: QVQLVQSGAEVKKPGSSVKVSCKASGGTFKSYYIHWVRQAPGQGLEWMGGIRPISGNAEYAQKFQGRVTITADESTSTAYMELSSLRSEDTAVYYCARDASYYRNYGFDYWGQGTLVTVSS VL: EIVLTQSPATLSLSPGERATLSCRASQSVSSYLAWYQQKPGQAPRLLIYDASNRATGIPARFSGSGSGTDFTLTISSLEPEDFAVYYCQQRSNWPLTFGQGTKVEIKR: 1.16e+06
DR4B4 (antibody, V domains shown, also called Lym-1 re-engineered as IgG2sigma) VH: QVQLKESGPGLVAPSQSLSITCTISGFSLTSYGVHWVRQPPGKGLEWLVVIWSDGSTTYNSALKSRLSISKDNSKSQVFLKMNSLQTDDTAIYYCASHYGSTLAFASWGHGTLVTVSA VL: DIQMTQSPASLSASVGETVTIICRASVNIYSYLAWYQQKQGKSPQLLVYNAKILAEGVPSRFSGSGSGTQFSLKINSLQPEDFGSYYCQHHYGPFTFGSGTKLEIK: 96200
DR4B6 (antibody, V domains shown, also called L243 re-engineered as IgG2sigma) VH: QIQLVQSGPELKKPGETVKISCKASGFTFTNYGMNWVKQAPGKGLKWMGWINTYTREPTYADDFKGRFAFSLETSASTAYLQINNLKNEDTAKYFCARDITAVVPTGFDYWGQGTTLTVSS VL: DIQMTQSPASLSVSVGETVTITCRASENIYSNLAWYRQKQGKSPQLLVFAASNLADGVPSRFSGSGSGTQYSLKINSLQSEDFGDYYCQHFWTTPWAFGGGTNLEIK: 520000

Consider the record given below.
Entry under review: DR4B98 (antibody, human IgG2, kappa, V domains shown, also called VH DR4H50 / VL PH9L3) VH: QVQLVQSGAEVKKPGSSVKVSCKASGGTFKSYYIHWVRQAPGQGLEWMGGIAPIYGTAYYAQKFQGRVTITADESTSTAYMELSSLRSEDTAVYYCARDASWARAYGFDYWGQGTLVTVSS VL: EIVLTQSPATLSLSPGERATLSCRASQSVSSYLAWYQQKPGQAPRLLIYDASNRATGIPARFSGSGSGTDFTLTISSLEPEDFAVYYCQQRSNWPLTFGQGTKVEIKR . Reported ECL signal?
278000
